What follows is a collection of IC50 values obtained with Thrombin (Homo sapiens, UniProt P00734).

COMPOUND	TARGET DESC	VALUE TYPE	REPORTED RESULT
Nc1nccc2c(NCC34CC(COc5ccn6ccnc6c5)(C3)C4)cccc12	Thrombin (Homo sapiens, UniProt P00734)	IC50	10 to 40 µM
CN1Cc2cc(OCC34COC(CNc5cccc6c(N)nccc56)(C3)C4)ccc2C1=O	Thrombin (Homo sapiens, UniProt P00734)	IC50	> 40 µM

Lookup: Param readout= IC50; system= Thrombin (Homo sapiens, UniProt P00734); entry= Nc1nccc2c(NCC34CC(COc5ccc6nnc(C(F)F)n6n5)(CO3)C4)cccc12 ; returns value.
Found: > 40 µM

Lookup: Param readout= IC50; system= Thrombin (Homo sapiens, UniProt P00734); entry= Nc1nccc2c(NCC34CC(COc5ccn6ccnc6c5)(CCO3)C4)cccc12 ; returns value.
Found: 10 to 40 µM

Lookup: Param readout= IC50; system= Thrombin (Homo sapiens, UniProt P00734); entry= Cc1cc(OCC23CCOC(CNc4cccc5c(N)nccc45)(C2)C3)cc(=O)n1C ; returns value.
Found: > 40 µM

Lookup: Param readout= IC50; system= Thrombin (Homo sapiens, UniProt P00734); entry= c1cc2cc(NCC34CC(COc5ccn6ccnc6c5)(C3)C4)ccc2cn1 ; returns value.
Found: 10 to 40 µM

Lookup: Param readout= IC50; system= Thrombin (Homo sapiens, UniProt P00734); entry= Cn1ccc(OCC23CC(CNc4cccc5c(N)nccc45)(C2)C3)cc1=O ; returns value.
Found: 10 to 40 µM

Lookup: Param readout= IC50; system= Thrombin (Homo sapiens, UniProt P00734); entry= Nc1nccc2c(NCC34CC(COC5CCn6ccnc6C5)(C3)C4)cccc12 (single isomer, unassigned) [Example 1002.1] ; returns value.
Found: 3 to 10 µM
